Where do these numbers come from? They come from PubChem BioAssay AID1117319.

# STUDY TARGET: Virion infectivity factor (Human immunodeficiency virus type 1 group M subtype B (isolate BH10)) + Virion infectivity factor (Human immunodeficiency virus type 1 group M subtype B (isolate BRU/LAI)) + Virion infectivity factor (Human immunodeficiency virus type 1 group M subtype B (isolate PCV12)) + Virion infectivity factor (Human immunodeficiency virus type 1 group M subtype B (isolate HXB2)) + DNA dC->dU-editing enzyme APOBEC-3G (Homo sapiens) (UniProt P69720+P69721+P69722+P69723+Q9HC16)
# PROTOCOL NOTES: inhibitors of Vif binding to APOBEC3G peptide, primary screen, biochemical, TR-FRET, GST-Vif 1-94, biotin-A3G peptide, dose response retest (AID 1117319);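 note: Vif residues 1-94 fused to GST binding biotinylated APOBEC3G peptide 110-148; 0% = full assay without inhibitor and 100% = GST in place of GST-Vif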
# CONDITION: hits give high values
The whole screen tested about 260,000 compounds, of which about 1,500 (0.58%) were called active. Roughly 5% stayed inconclusive and do not appear here. Not all results are given here. Measured potencies and affinities stand elsewhere.
Overview of reported inhibition across a group of compounds:
Value expressed in %; do not type the unit.

Below are worked cases with known answers.
# COMPOUND, MEASUREMENT UNIT, RESULT
records = [
    ("O=C(N/N=C/c1cc2c(cc1Br)OCO2)c1ccccn1", "%", 7.07),
    ("Cc1c(Cl)cnc(NC(=O)COC(=O)/C=C/c2ccco2)c1Cl", "%", 19.7),
    ("CCc1ccc2oc(=O)cc(CN3CCN(CCO)CC3)c2c1", "%", 4.78),
    ("Nc1ccc(N2CCN(c3ccc(Cl)c(Cl)c3)CC2)cc1", "%", 22.2),
    ("COc1ccc(OC)c(-c2csc(NC(=O)c3ccc(OCC4CCCO4)cc3)n2)c1 (stereo unspecified)", "%", 6.81),
]

Record `O=Cc1ccc(N2CCCCC2)cc1` . Reported inhibition: -6

Record `O=C(O/N=C1\CCS(=O)(=O)c2sccc21)C1CC1` . Reported inhibition: -8.69

Record `CCOC(=O)c1c(C)[nH]c(C(=O)OCC(=O)Nc2cccnc2Cl)c1C` . Reported inhibition: -0.74

Record `C=CCN(C(=O)Nc1ccc(OC)cc1)c1nnc(-c2ccncc2)s1` . Reported inhibition: -4.12

Record Cn1c(N)c(C(=O)COC(=O)C2CCC(C(C)(C)C)CC2)c(=O)n(C)c1=O (stereo unspecified) . Reported inhibition: 15.1

Record `O=C(O)c1ccc(N2CCCCC2)cc1` . Reported inhibition: 8.04

---

# STUDY TARGET: Virion infectivity factor (Human immunodeficiency virus type 1 group M subtype B (isolate BH10)) + Virion infectivity factor (Human immunodeficiency virus type 1 group M subtype B (isolate BRU/LAI)) + Virion infectivity factor (Human immunodeficiency virus type 1 group M subtype B (isolate PCV12)) + Virion infectivity factor (Human immunodeficiency virus type 1 group M subtype B (isolate HXB2)) + DNA dC->dU-editing enzyme APOBEC-3G (Homo sapiens) (UniProt P69720+P69721+P69722+P69723+Q9HC16)
# PROTOCOL NOTES: inhibitors of Vif binding to APOBEC3G peptide, primary screen, biochemical, TR-FRET, GST-Vif 1-94, biotin-A3G peptide, dose response retest (AID 1117319)
# CONDITION: hits give high values
Out of some 260,000 compounds screened, about 1,500 (0.58%) were called active. About 5% were inconclusive and are not listed. The list is a sample of the results. Potency and affinity values are given separately.
OUTCOME MEASURE: inhibition (%)
Value expressed in %; do not type the unit.

Below are worked cases with known answers.
# MOLECULE, inhibition (%)
measured = [
    ("Cc1ccccc1CNC(=O)c1ccc(Cl)c([N+](=O)[O-])c1", 3.74),
    ("C=CCNS(=O)(=O)c1cccc2cc(C(=O)O)c(O)cc12", -0.91),
]

Record O=C(NCc1ccccc1)C(=O)NCC1OCCCN1S(=O)(=O)c1cccs1 (stereo unspecified) . Reported inhibition: -3.27

Record `NC(=O)Nn1c(CCC(=O)O)ccc1-c1ccc(Cl)cc1` . Reported inhibition: 3.68

Record `COc1ccc(CCC(=O)N2CCCSC2=Nc2ccc(C(C)=O)cc2)cc1` . Reported inhibition: 11.6

Record `CC1CCN(CCCCOc2cccc(Br)c2)CC1` . Reported inhibition: -0.02

Record `COc1ccc(/C=N\NC(=O)c2cccc([N+](=O)[O-])c2)cc1Cn1cc([N+](=O)[O-])cn1` . Reported inhibition: 9.14

---

# STUDY TARGET: Virion infectivity factor (Human immunodeficiency virus type 1 group M subtype B (isolate BH10)) + Virion infectivity factor (Human immunodeficiency virus type 1 group M subtype B (isolate BRU/LAI)) + Virion infectivity factor (Human immunodeficiency virus type 1 group M subtype B (isolate PCV12)) + Virion infectivity factor (Human immunodeficiency virus type 1 group M subtype B (isolate HXB2)) + DNA dC->dU-editing enzyme APOBEC-3G (Homo sapiens) (UniProt P69720+P69721+P69722+P69723+Q9HC16)
# PROTOCOL NOTES: inhibitors of Vif binding to APOBEC3G peptide, primary screen, biochemical, TR-FRET, GST-Vif 1-94, biotin-A3G peptide, dose response retest (AID 1117319);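 note: Vif residues 1-94 fused to GST binding biotinylated APOBEC3G peptide 110-148; 0% = full assay without inhibitor and 100% = GST in place of GST-Vif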
# CONDITION: hits give high values
The campaign covered roughly 260,000 compounds. About 1,500 (0.58%) were called active. Not shown: some 5% with an inconclusive outcome. These entries were drawn from the full list. Entries with a potency or affinity are not part of this list.
OUTCOME MEASURE: inhibition (%)
Value expressed in %; do not type the unit.

Below are worked cases with known answers.
# GIVEN SMILES, MEASUREMENT UNIT, inhibition
data = [
    ("COc1ccc(OCCN(C)C(=O)c2cccc(S(=O)(=O)N(C)c3ccccc3)c2)cc1", "%", -4.53),
    ("Cc1ccc(/C=C/C(=O)Nc2ccc(S(N)(=O)=O)cc2)o1", "%", 5.06),
    ("Cc1cc(C(=O)N2CCN(c3cccc(Cl)c3)CC2)c(C)o1", "%", -5.08),
    ("O=c1[nH]c(=S)[nH]c2nccnc12", "%", -0.53),
    ("Cc1nc2[nH]c(=S)[nH]c(=O)c2nc1C", "%", 17.2),
]

Query compound follows.
Record `Cc1ccc(/C=C/C(=O)Nc2nnc(C)s2)o1` . Reported inhibition: 30.1

---

# STUDY TARGET: Virion infectivity factor (Human immunodeficiency virus type 1 group M subtype B (isolate BH10)) + Virion infectivity factor (Human immunodeficiency virus type 1 group M subtype B (isolate BRU/LAI)) + Virion infectivity factor (Human immunodeficiency virus type 1 group M subtype B (isolate PCV12)) + Virion infectivity factor (Human immunodeficiency virus type 1 group M subtype B (isolate HXB2)) + DNA dC->dU-editing enzyme APOBEC-3G (Homo sapiens) (UniProt P69720+P69721+P69722+P69723+Q9HC16)
# PROTOCOL NOTES: inhibitors of Vif binding to APOBEC3G peptide, primary screen, biochemical, TR-FRET, GST-Vif 1-94, biotin-A3G peptide, dose response retest (AID 1117319);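 note: Vif residues 1-94 fused to GST binding biotinylated APOBEC3G peptide 110-148; 0% = full assay without inhibitor and 100% = GST in place of GST-Vif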
# CONDITION: hits give high values
The campaign covered roughly 260,000 compounds. About 1,500 (0.58%) were called active. Inconclusive results (about 5%) are left out. The list is a sample of the results. Potency and affinity values are given separately.
Overview of reported inhibition across a group of compounds:
Value expressed in %; do not type the unit.

# COMPOUND, inhibition, %
data = [
    ("CC(=O)N(C1=C(N2CCOCC2)C(=O)c2ccccc2C1=O)c1ccc(C(=O)O)cc1", 14.4),
    ("CC(=O)N(C1=C(N)C(=O)c2ccccc2C1=O)c1ccccc1", 4.9),
    ("CC(Sc1nc2sc3c(c2c(=O)n1-c1ccccc1)CCCC3)C(=O)O (stereo unspecified)", 17),
    ("Cc1ccsc1C(=O)Nc1nc2ccccc2[nH]1", -12.8),
    ("C=CCSc1nc2sc3c(c2c(=O)n1CC)CCC3", 6.31),
]

Record `O=C(CCCl)N(Cc1nc2ccccc2c(=O)[nH]1)Cc1cccs1` . Reported inhibition: -7.06

---

# STUDY TARGET: Virion infectivity factor (Human immunodeficiency virus type 1 group M subtype B (isolate BH10)) + Virion infectivity factor (Human immunodeficiency virus type 1 group M subtype B (isolate BRU/LAI)) + Virion infectivity factor (Human immunodeficiency virus type 1 group M subtype B (isolate PCV12)) + Virion infectivity factor (Human immunodeficiency virus type 1 group M subtype B (isolate HXB2)) + DNA dC->dU-editing enzyme APOBEC-3G (Homo sapiens) (UniProt P69720+P69721+P69722+P69723+Q9HC16)
# PROTOCOL NOTES: inhibitors of Vif binding to APOBEC3G peptide, primary screen, biochemical, TR-FRET, GST-Vif 1-94, biotin-A3G peptide, dose response retest (AID 1117319);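 note: Vif residues 1-94 fused to GST binding biotinylated APOBEC3G peptide 110-148; 0% = full assay without inhibitor and 100% = GST in place of GST-Vif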
# CONDITION: hits give high values
In all, about 260,000 compounds went through this assay and about 1,500 (0.58%) were called active. Another 5% or so got no clear call; they are omitted. Not all results are given here. Results with a measured potency or affinity are listed apart.
Overview of reported inhibition across a group of molecules:
Value expressed in %; do not type the unit.

Record CCOC(=O)C1=C(COC(=O)Cc2ccccc2)NC(=O)NC1C (configuration not stated) . Reported inhibition: 2.89

Record `NC(N)=N/N=C/c1ccc(OCc2ccccc2)cc1` . Reported inhibition: -2.74

Record `CC(=O)Nc1ccc(N=Cc2ccc(OCc3ccccc3)cc2)cc1` . Reported inhibition: 21.2

Record Cc1ccc(C2CC(=O)C=C(NCC(C)C)C2)cc1 (configuration not stated) . Reported inhibition: 3.68

Record `COc1ccc(C(=O)NCc2ccncc2)cc1OC` . Reported inhibition: 24.8

Record Cc1ccc(NC2=CC(=O)CC(c3ccco3)C2)c(N)c1 (configuration not stated) . Reported inhibition: 23.3

Record `Cc1sc2ncn(-n3c(C)ccc3C)c(=O)c2c1C` . Reported inhibition: 5.69

Record `COCc1cc(=O)[nH]c(N2CCN(C(=O)c3ccco3)CC2)n1` . Reported inhibition: -8.81
